system: CEM cells HIV-1 protection, formazan growth assay; test: NCI AIDS Antiviral Assay; details: measured here: growth of uninfected CEM cells
Where a SMILES comes first, the peptide text is derived from it. The star is where a group is joined. Cbz = O=C(OCc1ccccc1)*; CH2Cl = ClC*
Metric: IC50 (µM)

>>> print(df.to_string())
                                   compound  units_text  result_qualifier  value_observed
0       CCSc1nc(=S)n(-c2ccccc2)c(C)c1C(C)=O          µM                 >             200
1  CN(C)c1ccc(C=Cc2ccc([N+](=O)[O-])cc2)cc1.[C-]#[O+].[C-]#[O+].[C-]#[O+].[Cr]          µM                 =             2.4
2                CC(=O)NC(=O)CC(=O)c1ccccc1          µM                 >             631
3                  O=C1NC(=S)N/C1=C\c1ccco1          µM                 =             105
4  CC(C)CC(NC(=O)OCc1ccccc1)C(=O)NC(Cc1ccccc1)C(=O)CCl (stereo not drawn) (Cbz-Leu-Phe-CH2Cl; configuration not given here)          µM                 =               1
5  COc1ccc(Nc2nc(NS(=O)(=O)c3cc(C)c(Cl)cc3S)n[nH]2)cc1          µM                 =             257
6            CCOC(=O)C(=CN1CCNC1=S)C(=O)OCC          µM                 >             200

----------
system: CEM cells HIV-1 protection, formazan growth assay; assay: NCI AIDS Antiviral Assay; details: measured here: growth of uninfected CEM cells
Where a SMILES comes first, the peptide text is derived from it. [ ]: non-standard residue; d: D form. ξ: configuration not given here. Ac5c = NC1(C(=O)O)CCCC1; ξS = NC(CO)C(=O)O
Metric: IC50

In [3]: df
Out[3]:
                                   compound                       experimental_target  metric  value_observed
0  O=[N+]([O-])c1ccc(Cc2ccc([N+](=O)[O-])cc2)cc1  CEM cells HIV-1 protection, formazan growth assay    IC50       > 28.2 µM
1  O=C(ON(Cc1ccccc1)C(=O)C1C=CC=C1)C1=CCC=C1  CEM cells HIV-1 protection, formazan growth assay    IC50         > 17 µM
2  CC(=O)OC1CN(OCC2OC(OC(C)=O)C(OC(C)=O)C(OC(C)=O)C2OC(C)=O)CC(OC(C)=O)C1OC(C)=O (centres undefined)  CEM cells HIV-1 protection, formazan growth assay    IC50        > 200 µM
3  COc1cc2c(c(OC)c1OC)-c1cc3c(cc1C(=O)CC(C(=O)O)(C(=O)O)C2)OCO3  CEM cells HIV-1 protection, formazan growth assay    IC50        > 562 µM
4            CCOC(=O)c1ccccc1NC(=O)CN(CC)CC  CEM cells HIV-1 protection, formazan growth assay    IC50        > 200 µM
5  O=C1N[C@@H]([C@H](CCCCCO)OC(=O)c2ccccc2)CO1  CEM cells HIV-1 protection, formazan growth assay    IC50        > 200 µM
6  CCOC(=O)C(CO)NC(=O)C1(NC(C)=O)CCCC1 (centres undefined) (Ac-[Ac5c]-[ξS]-OEt)  CEM cells HIV-1 protection, formazan growth assay    IC50        > 200 µM
7         Cc1c2ccccc2nc(CN2CCOCC2)[n+]1[O-]  CEM cells HIV-1 protection, formazan growth assay    IC50        > 200 µM
8  COc1ccc(C2(OC)Oc3ccccc3-c3nc4ccccc4nc32)cc1 (centres undefined)  CEM cells HIV-1 protection, formazan growth assay    IC50       > 69.2 µM
